Values were extracted from PubChem BioAssay (EPA / NIEHS).

# Read-out: urokinase plasminogen activator (uPA), PLAU (gene 5328)
# experiment: BSK_BE3C_uPA: BioMAP Diversity Plus: BE3C Assay for urokinase plasminogen activator (uPA) Biomarker Activity (AID 2283038)
# appliedConditions: primary human bronchial epithelial cells; actives raise or lower the signal
Activity calls are given as the source filed them. The calls were made as follows: active = hit-call score of the fitted dose curve at least 0.9, where 1 is the maximum; inactive = score below 0.9.
attributeMeasured: AC50

| molecule | result |
| --- | --- |
| CC(=O)CC(C)(C)O | inactive |
| CCCCCCCCCCCCc1ccccc1S(=O)(=O)O | 13.9 µM (active) |
| CCCCCCC(=O)O | inactive |
| C#C[C@]1(O)CC[C@H]2[C@@H]3CCC4=CC(=O)CC[C@@H]4[C@H]3CC[C@@]21C | inactive |
| CCCCCCCCCCCCN1CCCC1=O | 35.1 µM (active) |
| CCCCCCCCOC(=O)CCCCCCCCC(=O)OCCCCCCCC | inactive |
| CCCCCCCCCCCCCC[N+](C)(C)C | 4.85 µM (active) |
| Nc1cccc2c(N)cccc12 | inactive |
| COC(=O)CCCCC(=O)OC | inactive |
| CN1CCN(c2ccccc2/C=C2\SCCN(c3ccc(Cl)c(Cl)c3)C2=O)CC1 | 30.4 µM (active) |
| COc1ccc([N+](=O)[O-])cc1N | inactive |
| CCc1nn(C2CCCCC2)c2cc(C3(C#N)CCC(C(=O)O)CC3)ccc12 (centres undefined) | 3.48 µM (active) |
| CC(O)CO (centres undefined) | inactive |
| COCC(C)OCC(C)O (centres undefined) | inactive |
